- tested-target: recombinant soluble homotrimeric HA, A/common magpie/Hong Kong/5052/07 (H5N1) (influenza A virus A/common magpie/Hong Kong/5052/2007 (H5N1))
- method-description: microarray, trimeric HA, transfection supernatant
- test-settings: remark: other sources report otherwise
Please go through the items and note down their Trimeric HA Binding RLU.
Reply numerically in RLU, unit not repeated.

Request: Fill in Trimeric HA Binding RLU for record TCN-553 (5261_C18) (antibody, V domains shown) VH: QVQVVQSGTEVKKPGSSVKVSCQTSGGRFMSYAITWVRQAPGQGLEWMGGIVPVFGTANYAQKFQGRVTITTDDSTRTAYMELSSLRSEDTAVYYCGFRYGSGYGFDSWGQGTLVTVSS VL: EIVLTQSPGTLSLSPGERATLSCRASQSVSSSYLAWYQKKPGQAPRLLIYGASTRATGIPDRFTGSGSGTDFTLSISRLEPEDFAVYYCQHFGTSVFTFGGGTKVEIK
Result: 39200

Request: Fill in Trimeric HA Binding RLU for record TCN-538 (3206_O17) (antibody, V domains shown) VH: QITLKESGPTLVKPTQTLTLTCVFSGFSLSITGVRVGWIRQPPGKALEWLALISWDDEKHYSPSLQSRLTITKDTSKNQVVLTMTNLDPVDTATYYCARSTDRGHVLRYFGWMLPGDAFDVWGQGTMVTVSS VL: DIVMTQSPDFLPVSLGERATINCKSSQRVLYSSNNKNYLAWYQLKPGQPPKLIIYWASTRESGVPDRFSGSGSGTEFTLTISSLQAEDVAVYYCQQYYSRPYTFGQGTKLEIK
Result: 3140

Request: Fill in Trimeric HA Binding RLU for record TCN-543 (5081_G23) (antibody, V domains shown) VH: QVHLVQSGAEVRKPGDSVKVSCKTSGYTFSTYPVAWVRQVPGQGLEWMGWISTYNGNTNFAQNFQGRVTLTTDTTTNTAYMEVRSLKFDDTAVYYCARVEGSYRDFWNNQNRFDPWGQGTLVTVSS VL: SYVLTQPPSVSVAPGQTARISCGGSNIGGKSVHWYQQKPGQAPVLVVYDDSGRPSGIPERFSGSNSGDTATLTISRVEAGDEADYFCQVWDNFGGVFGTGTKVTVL
Result: 1070
